# TESTED SYSTEM: human recombinant PDE5 (Homo sapiens)
# PROTOCOL DETAILS: PDE5 inhibition, IMAP fluorescence polarization assay
# Type: biochemical
# DETAILS: read-out: PDE5 % inh at 50 (μM)
Assign inhibition at 50 µM to each entry below.
Only the number, expressed in %, is required.

Request: Quick one: inhibition at 50 µM for Cc1ccc(C2CC(C(C)(C)C)=NN2c2ccc(C(=O)O)cc2)cc1 (stereo not shown) [Compound 22] ?
Result: 93

Request: Same question for CC(C)(C)c1cc(-c2ccccc2)n(-c2ccc(C(=O)O)cc2)n1 [Compound 34] please.
Result: 72

Request: Same question for CC(C)(C)C1=NN(c2ccc(C(=O)O)cc2)C(c2c(Cl)cccc2Cl)C1 (stereo not shown) [Compound 13] please.
Result: 99.1

Request: Same question for CC(C)(C)C1=NN(c2ccc(C(=O)O)cc2)C(c2ccc([N+](=O)[O-])cc2)C1 (stereo not shown) [Compound 21] please.
Result: 91
